Attribution: patent US7932262B2

# Test system: PC-3 cells
# ASSAY_EXPLANATION: Cell Proliferation Assay (Cell Titer Glo), PC-3 cell line
# Assay type: cell-based
# TEST_PARAMETERS: Homo sapiens, PC-3, PC3 cells; read-out: CPEC50 PC3
READOUT_NAME: EC50

Consider the worked cases shown below.
- Cc1ccc(-c2ccc3cnc(Nc4ccc(S(N)(=O)=O)cc4)nc3c2)c(F)n1 [Compound 939]: < 5 µM
- CC(C)N1CCC(Oc2cccc3cnc(Nc4ccc(CC(N)=O)cc4)nc23)CC1 [Compound 970]: < 5 µM
- CNC(=O)Cc1cccc(Nc2ncc3cccc(OC4CCN(C(C)C)CC4)c3n2)c1 [Compound 1003]: < 5 µM
- CNC(=O)Cc1ccc(Nc2ncc3cccc(OC4CCN(C(C)C)CC4)c3n2)cc1 [Compound 966]: < 5 µM

What does the record list as EC50 for CCN1CCC(Oc2ccc3cnc(Nc4cc(OC)cc(OC)c4)nc3c2)CC1 [Compound 958] ? < 5 µM

What value of EC50 has been recorded for this entry: CNS(=O)(=O)Cc1ccc(Nc2ncc3cccc(-c4ccc(NCCN5CCCC5)nc4)c3n2)cc1 [Compound 998] < 5 µM

====

# Tested on: A2780 cells
# ASSAY_EXPLANATION: Cell Proliferation Assay (Cell Titer Glo), A2780
# Assay type: cell-based
# TEST_PARAMETERS: Homo sapiens; Cell Proliferation Assay, A2780; read-out: CPEC50 A2780
pEC50: −log10 of the molar value.
READOUT_NAME: pEC50

The cases that follow already have their pEC50 on record.
* NS(=O)(=O)c1ccc(Nc2ncc3cccc(OC4CCCC4)c3n2)cc1 | > 5.30
* CC(C)Oc1cccc2cnc(Nc3cccc(S(N)(=O)=O)c3)nc12 | > 5.30

Now look at this entry.
# pEC50 lookup, item `NC(=O)c1ccc(COc2cccc3cnc(Nc4ccc(S(N)(=O)=O)cc4)nc23)cc1` 5.00 to 5.30

====

# TARGET_OF_ASSAY: PDK1 kinase (Homo sapiens)
# Sequence (O15530 whole entry): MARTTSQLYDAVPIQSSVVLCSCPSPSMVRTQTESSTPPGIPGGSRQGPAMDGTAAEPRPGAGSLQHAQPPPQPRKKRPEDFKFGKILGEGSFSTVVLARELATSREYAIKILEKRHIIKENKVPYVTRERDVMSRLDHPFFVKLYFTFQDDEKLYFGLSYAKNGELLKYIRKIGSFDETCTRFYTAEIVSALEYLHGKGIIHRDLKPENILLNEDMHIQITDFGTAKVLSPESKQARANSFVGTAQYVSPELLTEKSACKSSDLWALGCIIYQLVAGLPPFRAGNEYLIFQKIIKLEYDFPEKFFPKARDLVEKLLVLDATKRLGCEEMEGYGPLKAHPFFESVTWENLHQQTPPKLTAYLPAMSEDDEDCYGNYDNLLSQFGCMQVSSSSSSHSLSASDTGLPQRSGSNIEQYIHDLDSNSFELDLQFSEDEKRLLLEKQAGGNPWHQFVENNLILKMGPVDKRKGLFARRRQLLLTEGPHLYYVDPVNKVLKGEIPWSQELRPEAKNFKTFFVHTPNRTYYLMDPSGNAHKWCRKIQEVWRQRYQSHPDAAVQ
# ASSAY_EXPLANATION: PDK1 Kinase Alpha Screen Assay
# Assay type: biochemical
# TEST_PARAMETERS: PDK1 Kinase Alpha Screen Assay; read-out: PDK1 IC50
pIC50: −log10 of the molar value.
READOUT_NAME: pIC50

* COC(=O)Nc1cc(CN2CCOCC2)cc(Nc2ncc3ccc(-c4cnn(CCC(C)C)c4)c(OC)c3n2)c1 | > 5.30
* COC(=O)Nc1cc(Nc2ncc3cc(-c4cn[nH]c4)c(OC4CCN(C)CC4)cc3n2)cc(-c2cn[nH]c2)c1 | > 5.30
* CC(C)N1CCC(Oc2ccc3cnc(Nc4cccc(N5CCN(C)CC5)c4)nc3c2)CC1 | > 5.30
* C#Cc1cc(OC2CCNCC2)c2nc(Nc3ccc(N4CCOCC4)cc3)ncc2c1 | > 5.30
* COc1cc(S(N)(=O)=O)c(OC)cc1Nc1ncc2ccc(OC3CCNCC3)cc2n1 | > 5.30
* CC(C)N1CCC(Oc2cc(Br)cc3cnc(Nc4ccc(F)cc4)nc23)CC1 | > 5.30
* CN1CCN(c2ccc(-c3cccc4cnc(Nc5ccc(N6CCOCC6)c(Cl)c5)nc34)cn2)CC1 | > 5.30

Need pIC50 of `Cn1cc(-c2ccc(Nc3ncc4ccc(OC5CCNCC5)cc4n3)cc2F)cn1` , thanks. > 5.30
